Test system: NCI-H2085
Assay: relative viability (nuclei count vs DMSO), 5 days (fraction); higher = more cells survive
Conditions: first compound 0.5 µM
measure: relative viability

Nc1ccn([C@@H]2O[C@H](CO)[C@@H](O)[C@@H]2O)c(=O)n1 [Cytarabine] + CC(=O)c1c(C)c2cnc(Nc3ccc(N4CCNCC4)cn3)nc2n(C2CCCC2)c1=O [Palbociclib] (partner 0.5 µM) ... 0.266

Item: Nc1ccn([C@@H]2O[C@H](CO)[C@@H](O)[C@@H]2O)c(=O)n1 [Cytarabine] + CS(=O)(=O)N1CCN(Cc2cc3nc(-c4cccc5[nH]ncc45)nc(N4CCOCC4)c3s2)CC1 [Pictilisib] (partner 1 µM) | relative viability: 0.281

Measured relative viability of Nc1ccn([C@@H]2O[C@H](CO)[C@@H](O)[C@@H]2O)c(=O)n1 [Cytarabine] + CC(C)C[C@H](NC(=O)[C@H](Cc1ccccc1)NC(=O)c1cnccn1)B(O)O [Bortezomib] (partner 0.002 µM) : 0.66

Quick note, relative viability for Nc1ccn([C@@H]2O[C@H](CO)[C@@H](O)[C@@H]2O)c(=O)n1 [Cytarabine] + C[C@@H](Oc1cc(-c2cnn(C3CCNCC3)c2)cnc1N)c1c(Cl)ccc(F)c1Cl [Crizotinib] (partner 1 µM) landed at 0.621

Just for reference, the supplement of paper PMC10307832 is where these values come from.
